- target entity: GST-Xa-hAAK1 (Homo sapiens)
- Construct: made in house
- Sequence (Q2M2I8 whole entry): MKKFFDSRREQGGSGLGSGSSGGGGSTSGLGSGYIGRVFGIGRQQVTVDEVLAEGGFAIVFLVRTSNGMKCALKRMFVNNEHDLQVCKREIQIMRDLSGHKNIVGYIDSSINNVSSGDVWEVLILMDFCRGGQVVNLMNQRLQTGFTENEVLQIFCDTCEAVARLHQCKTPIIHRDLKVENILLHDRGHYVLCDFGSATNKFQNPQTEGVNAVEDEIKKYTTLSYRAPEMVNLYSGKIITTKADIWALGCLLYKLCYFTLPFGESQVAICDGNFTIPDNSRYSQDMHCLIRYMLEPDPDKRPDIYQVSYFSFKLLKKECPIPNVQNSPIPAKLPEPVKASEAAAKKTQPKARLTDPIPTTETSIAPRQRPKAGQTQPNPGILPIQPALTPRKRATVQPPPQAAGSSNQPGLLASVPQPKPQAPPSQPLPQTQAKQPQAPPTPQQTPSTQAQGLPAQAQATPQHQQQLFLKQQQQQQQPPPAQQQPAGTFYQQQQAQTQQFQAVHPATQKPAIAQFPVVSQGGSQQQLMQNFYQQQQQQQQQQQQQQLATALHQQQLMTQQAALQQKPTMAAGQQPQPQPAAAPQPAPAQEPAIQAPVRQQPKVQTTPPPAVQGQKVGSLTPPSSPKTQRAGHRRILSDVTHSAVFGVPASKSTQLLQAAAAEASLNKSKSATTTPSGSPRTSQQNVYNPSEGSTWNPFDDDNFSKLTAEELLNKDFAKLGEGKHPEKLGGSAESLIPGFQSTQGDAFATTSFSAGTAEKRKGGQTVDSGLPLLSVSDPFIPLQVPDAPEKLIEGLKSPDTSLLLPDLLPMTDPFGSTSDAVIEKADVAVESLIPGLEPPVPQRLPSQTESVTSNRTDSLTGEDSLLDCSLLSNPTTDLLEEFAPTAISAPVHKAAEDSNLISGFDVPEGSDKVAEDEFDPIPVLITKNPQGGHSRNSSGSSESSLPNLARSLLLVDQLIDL
- procedure text: AAK1 kinase assay
- Assay type: biochemical
- condition label: given as IC50 range; ATP 22 μM, 3 hours at room temperature
Listed next: entries and their corresponding IC50.

Below: 3 compounds and their reported IC50.
# compound, IC50
rows = [
    ("Cc1nccc2c1c(=O)n(C)c1cc(OC[C@@H](N)CC3CCC3)c(Cl)cc21", "1 to 10 nM"),
    ("CC(C)C[C@H](N)COc1cc2c(cc1C1CC1)c1ccncc1c(=O)n2C", "1 to 10 nM"),
    ("Cc1nccc2c1c(=O)[nH]c1c(F)c(OC[C@@H](N)CC(C)C)c(Br)cc12", "1 to 10 nM"),
]

Consider the record given below.
Could you please provide reported IC50 for Cc1nccc2c1c(=O)n(C)c1cc(OC[C@@H](N)CC(C)C)c(C(C)O)cc21 (single isomer, unassigned) ? Thanks!
10 to 100 nM
